Taken from patent US20240174618A1.

System: Pharbitis purpurea (PHBPU)
Test: E. Herbicidal post-emergence efficacy, PHBPU
Assay type: in vivo
Settings: application rate 80 g/ha
Quick reference: Post-emergence efficacy against PHBPU in % of the listed items.
Could you give me the number in %? Just the number is fine.

Look over these answered cases.
// lookup Post-emergence efficacy against PHBPU in % for O=S(=O)(CCC(F)=C(F)F)Oc1c(F)cccc1Oc1ncc(Cl)cn1 [Example I-70] 80

// lookup Post-emergence efficacy against PHBPU in % for O=S(=O)(CC1CC(F)(F)C1)Oc1c(F)cccc1Oc1ncc(Cl)cn1 [Example I-53] 100

// lookup Post-emergence efficacy against PHBPU in % for O=S(=O)(CCCCCl)Oc1ccccc1Oc1ncc(Cl)cn1 [Example I-15] 90

New cases:
// lookup Post-emergence efficacy against PHBPU in % for O=S(=O)(CCCC(F)(F)F)Oc1c(F)cccc1Oc1ncc(Br)cn1 [Example I-41] 100

// lookup Post-emergence efficacy against PHBPU in % for CC(C)CCS(=O)(=O)Oc1ccccc1Oc1ncc(Cl)cn1 [Example I-25] 80

* * *

Test system: Veronica persica (VERPE)
Assay: C. Herbicidal pre-emergence efficacy, VERPE
Format: in vivo
Details: 80 g/ha, scored after about 3 weeks
From the text: Seeds of monocotyledonous and dicotyledonous weed plants and crop plants were placed in plastic or organic planting pots and covered with soil. […] After about 3 weeks, the efficacy of the preparations was scored visually in comparison with untreated controls as percentages. […]
EXPERIMENTAL_READOUT: Pre-emergence efficacy against VERPE (%)
Could you give me the number in %? Just the number is fine.

Look over these answered cases.
// lookup Pre-emergence efficacy against VERPE for O=S(=O)(CCCCl)Oc1ccccc1Oc1ncc(F)cn1 [Example I-5] 100

// lookup Pre-emergence efficacy against VERPE for CCCCS(=O)(=O)Oc1ccccc1Oc1ncc(Cl)cn1 [Example I-6] 80

// lookup Pre-emergence efficacy against VERPE for O=S(=O)(CCCC(F)(F)F)Oc1c(F)cccc1Oc1ncc(Br)cn1 [Example I-41] 100

// lookup Pre-emergence efficacy against VERPE for N#Cc1cccc(Oc2ncc(Cl)cn2)c1OS(=O)(=O)CCCC(F)(F)F [Example I-81] 100

New cases:
// lookup Pre-emergence efficacy against VERPE for O=S(=O)(CCCCl)Oc1ccccc1Oc1ncc(Cl)cn1 [Example I-2] 90

// lookup Pre-emergence efficacy against VERPE for CC(C)CS(=O)(=O)Oc1ccccc1Oc1ncc(Cl)cn1 [Example I-7] 90

// lookup Pre-emergence efficacy against VERPE for O=S(=O)(CCC(F)=C(F)F)Oc1c(F)cccc1Oc1ncc(Cl)cn1 [Example I-70] 80

// lookup Pre-emergence efficacy against VERPE for O=S(=O)(CCCC(F)(F)F)Oc1c(Cl)cccc1Oc1ncc(Br)cn1 [Example I-34] 80

// lookup Pre-emergence efficacy against VERPE for O=S(=O)(CCC(F)(F)F)Oc1c(Cl)cccc1Oc1ncc(Br)cn1 [Example I-32] 80

// lookup Pre-emergence efficacy against VERPE for O=S(=O)(CCCC(F)(F)C(F)(F)F)Oc1c(F)cccc1Oc1ncc(Cl)cn1 [Example I-68] 90

// lookup Pre-emergence efficacy against VERPE for O=S(=O)(CCC(F)(F)F)Oc1ccccc1Oc1ncc(Cl)cn1 [Example I-8] 100

// lookup Pre-emergence efficacy against VERPE for O=S(=O)(CC1CC(F)(F)C1)Oc1c(F)cccc1Oc1ncc(Cl)cn1 [Example I-53] 100

// lookup Pre-emergence efficacy against VERPE for O=S(=O)(CCCC(F)(F)F)Oc1c(Cl)cccc1Oc1ncc(Cl)cn1 [Example I-39] 100

// lookup Pre-emergence efficacy against VERPE for O=S(=O)(CC1CC1)Oc1ccccc1Oc1ncc(Cl)cn1 [Example I-23] 100

* * *

Quick reference: Pre-emergence efficacy against ECHCG of the listed items.
Tested on: Echinochloa crus-galli (ECHCG)
Assay: A. Herbicidal pre-emergence efficacy, ECHCG
Format: in vivo
Details: 1280 g/ha; scored visually after about 3 weeks vs untreated controls
Source text: Seeds of mono- and dicotyledonous weed plants were placed in plastic pots in sandy loam soil (doubly sown with one species each of mono- or dicotyledonous weed plants per pot) and covered with soil. […] After about 3 weeks, the efficacy of the preparations was scored visually in comparison with untreated controls as percentages. […]
Could you give me the number in %? Just the number is fine.

// lookup Pre-emergence efficacy against ECHCG for "O=S(=O)(CCCC(F)(F)F)Oc1c(Cl)cccc1Oc1ncc(Cl)cn1" 100

New cases:
// lookup Pre-emergence efficacy against ECHCG for "O=S(=O)(CCC(F)(F)F)Oc1ccccc1Oc1ncc(Cl)cn1" 100

// lookup Pre-emergence efficacy against ECHCG for "O=S(=O)(CCCC(F)(F)F)Oc1c(F)cccc1Oc1ncc(Br)cn1" 100

// lookup Pre-emergence efficacy against ECHCG for "Cc1cccc(Oc2ncc(Cl)cn2)c1OS(=O)(=O)CCCC(F)(F)C(F)(F)F" 90

// lookup Pre-emergence efficacy against ECHCG for O=S(=O)(CC1CC1(Cl)Cl)Oc1c(F)cccc1Oc1ncc(Cl)cn1 (stereo not shown) 100

// lookup Pre-emergence efficacy against ECHCG for "O=S(=O)(CC1CC(F)(F)C1)Oc1c(Br)cccc1Oc1ncc(Cl)cn1" 100

// lookup Pre-emergence efficacy against ECHCG for "O=S(=O)(CCCCl)Oc1c(F)cccc1Oc1ncc(Cl)cn1" 100

// lookup Pre-emergence efficacy against ECHCG for "O=S(=O)(CCC(F)(F)F)Oc1c(Br)cccc1Oc1ncc(Cl)cn1" 100

// lookup Pre-emergence efficacy against ECHCG for "N#Cc1cccc(Oc2ncc(Cl)cn2)c1OS(=O)(=O)CCCCl" 90

// lookup Pre-emergence efficacy against ECHCG for "Cc1cccc(Oc2ncc(Cl)cn2)c1OS(=O)(=O)CC1CC(F)(F)C1" 100

// lookup Pre-emergence efficacy against ECHCG for "O=S(=O)(CCC(F)(F)F)Oc1c(Br)cccc1Oc1ncc(F)cn1" 100

// lookup Pre-emergence efficacy against ECHCG for "O=S(=O)(CCC(F)(F)F)Oc1c(F)cccc1Oc1ncc(Cl)cn1" 90

// lookup Pre-emergence efficacy against ECHCG for "Cc1cccc(Oc2ncc(Br)cn2)c1OS(=O)(=O)CCC(F)(F)F" 100

// lookup Pre-emergence efficacy against ECHCG for "O=S(=O)(CCCC(F)(F)F)Oc1ccccc1Oc1ccc(Cl)cn1" 90

// lookup Pre-emergence efficacy against ECHCG for "O=S(=O)(CCC(F)(F)F)Oc1c(Cl)cccc1Oc1ncc(Br)cn1" 100

// lookup Pre-emergence efficacy against ECHCG for O=S(=O)(CC1CCCO1)Oc1c(F)cccc1Oc1ncc(Cl)cn1 (stereo not shown) 100

// lookup Pre-emergence efficacy against ECHCG for "CC(C)CS(=O)(=O)Oc1ccccc1Oc1ncc(Cl)cn1" 100

// lookup Pre-emergence efficacy against ECHCG for "C=CCS(=O)(=O)Oc1ccccc1Oc1ncc(Cl)cn1" 100

// lookup Pre-emergence efficacy against ECHCG for "O=S(=O)(CCC(F)(F)F)Oc1c(F)cccc1Oc1ncc(Br)cn1" 100

// lookup Pre-emergence efficacy against ECHCG for "O=S(=O)(CCCC(F)(F)F)Oc1c(F)cccc1Oc1ncc(F)cn1" 100

// lookup Pre-emergence efficacy against ECHCG for "O=S(=O)(CC1CC(F)(F)C1)Oc1c(F)cccc1Oc1ncc(Cl)cn1" 100

// lookup Pre-emergence efficacy against ECHCG for "N#Cc1cc(Cl)cnc1Oc1ccccc1OS(=O)(=O)CCCCl" 100

* * *

Test system: Oryza sativa (ORYSA)
Experiment: F. Post-emergence effect on useful plants, ORYSA
Assay type: in vivo
Settings: useful plant, application rate 80 g/ha
EXPERIMENTAL_READOUT: Post-emergence efficacy against ORYSA in % (%)
Could you give me the number in %? Just the number is fine.

// lookup Post-emergence efficacy against ORYSA in % for "CCCS(=O)(=O)Oc1ccccc1Oc1ncc(Cl)cn1" 10

// lookup Post-emergence efficacy against ORYSA in % for "CC(C)CCS(=O)(=O)Oc1ccccc1Oc1ncc(Cl)cn1" 0

// lookup Post-emergence efficacy against ORYSA in % for "O=S(=O)(CCCCl)Oc1ccccc1Oc1ncc(F)cn1" 20

New cases:
// lookup Post-emergence efficacy against ORYSA in % for "O=S(=O)(CCCCl)Oc1ccccc1Oc1ncc(Cl)cn1" 0

// lookup Post-emergence efficacy against ORYSA in % for "O=S(=O)(CC1CC1)Oc1ccccc1Oc1ncc(Cl)cn1" 0

* * *

System: Echinochloa crus-galli (ECHCG)
Experiment: B. Herbicidal post-emergence efficacy, ECHCG
Type: in vivo
Details: 1280 g/ha, rated visually after about 3 weeks
EXPERIMENTAL_READOUT: Post-emergence efficacy against ECHCG in % (%)
Could you give me the number in %? Just the number is fine.

Quick check: Post-emergence efficacy against ECHCG in % on Echinochloa crus-galli (ECHCG), item "CC(C)CS(=O)(=O)Oc1ccccc1Oc1ncc(Cl)cn1" ? 90

Quick check: Post-emergence efficacy against ECHCG in % on Echinochloa crus-galli (ECHCG), item Cc1cccc(Oc2ncc(Cl)cn2)c1OS(=O)(=O)CC1CC1(Cl)Cl (stereo not shown) ? 100

Quick check: Post-emergence efficacy against ECHCG in % on Echinochloa crus-galli (ECHCG), item O=S(=O)(CC1CC1(Cl)Cl)Oc1c(Br)cccc1Oc1ncc(Cl)cn1 (stereo not shown) ? 100

Quick check: Post-emergence efficacy against ECHCG in % on Echinochloa crus-galli (ECHCG), item "O=S(=O)(CCCC(F)(F)F)Oc1c(Br)cccc1Oc1ncc(F)cn1" ? 100

Quick check: Post-emergence efficacy against ECHCG in % on Echinochloa crus-galli (ECHCG), item "O=S(=O)(CC1CC(F)(F)C1)Oc1c(F)cccc1Oc1ncc(Cl)cn1" ? 90

Quick check: Post-emergence efficacy against ECHCG in % on Echinochloa crus-galli (ECHCG), item "O=S(=O)(Oc1ccccc1Oc1ncc(Cl)cn1)C1CCCC1" ? 90

Quick check: Post-emergence efficacy against ECHCG in % on Echinochloa crus-galli (ECHCG), item "O=S(=O)(CC1CC(F)(F)C1)Oc1c(Br)cccc1Oc1ncc(Cl)cn1" ? 90

Quick check: Post-emergence efficacy against ECHCG in % on Echinochloa crus-galli (ECHCG), item "O=S(=O)(CCCC(F)F)Oc1c(F)cccc1Oc1ncc(Cl)cn1" ? 90

Quick check: Post-emergence efficacy against ECHCG in % on Echinochloa crus-galli (ECHCG), item "CCCS(=O)(=O)Oc1ccccc1Oc1ncc(Cl)cn1" ? 90

Quick check: Post-emergence efficacy against ECHCG in % on Echinochloa crus-galli (ECHCG), item "O=S(=O)(CCC(F)(F)F)Oc1c(F)cccc1Oc1ncc(F)cn1" ? 100

New cases:
Quick check: Post-emergence efficacy against ECHCG in % on Echinochloa crus-galli (ECHCG), item O=S(=O)(CC1CCCO1)Oc1c(F)cccc1Oc1ncc(Cl)cn1 (stereo not shown) ? 90

Quick check: Post-emergence efficacy against ECHCG in % on Echinochloa crus-galli (ECHCG), item "Cc1cccc(Oc2ncc(Cl)cn2)c1OS(=O)(=O)CCC(F)(F)F" ? 100

Quick check: Post-emergence efficacy against ECHCG in % on Echinochloa crus-galli (ECHCG), item "O=S(=O)(CCC(F)=C(F)F)Oc1c(Br)cccc1Oc1ncc(Cl)cn1" ? 100

Quick check: Post-emergence efficacy against ECHCG in % on Echinochloa crus-galli (ECHCG), item "O=S(=O)(CC1CC1)Oc1ccccc1Oc1ncc(Cl)cn1" ? 90

Quick check: Post-emergence efficacy against ECHCG in % on Echinochloa crus-galli (ECHCG), item "O=S(=O)(CCC(F)=C(F)F)Oc1c(Cl)cccc1Oc1ncc(Cl)cn1" ? 100
